System: DENV-3 strain H87
Assay: Tetravalent RT-qPCR assay Protocol A, serotype 3
Format: cell-based
Settings: Dengue virus, DENV3, 72 h, RT-qPCR serotype 3 H87, Vero cells, 3 days
measured.property: EC50 (µM)

molecule: COc1cc(NC(C(=O)c2c[nH]c3cc(F)c(F)cc23)c2ccc(Cl)cc2OC)cc(OCCO)c1 (single isomer, unassigned)
measured.property: EC50
value.measured: 0.063
--
molecule: COc1cc(NC(C(=O)c2c[nH]c3c(C)c(Cl)ccc23)c2ccc(Cl)cc2OC)cc(OCCO)c1 (single isomer, unassigned)
measured.property: EC50
value.measured: 0.036
--
molecule: COc1cc(NC(C(=O)c2c[nH]c3c(F)cc(C)cc23)c2ccc(Cl)cc2OC)cc(OCCO)c1 (single isomer, unassigned) [Compound 10A]
measured.property: EC50
value.measured: 0.07
--
molecule: COc1cc(NC(C(=O)c2c[nH]c3cc(OC)ccc23)c2ccc(Cl)cc2OC)cc(OCCO)c1 (single isomer, unassigned)
measured.property: EC50
value.measured: 0.068
--
molecule: COc1cc(NC(C(=O)c2c[nH]c3cc(F)ccc23)c2ccc(Cl)cc2OC)cc(OCCO)c1 (single isomer, unassigned)
measured.property: EC50
value.measured: 0.063
--
molecule: COc1cc(NC(C(=O)c2c[nH]c3c(F)c(F)ccc23)c2ccc(Cl)cc2OC)cc(OCCO)c1 (single isomer, unassigned) [Compound 11B]
measured.property: EC50
value.measured: 0.07
--
molecule: COc1cc(NC(C(=O)c2c[nH]c3c(C)cc(F)cc23)c2ccc(Cl)cc2OC)cc(OCCO)c1 (single isomer, unassigned)
measured.property: EC50
value.measured: 0.076
--
molecule: COc1cc(NC(C(=O)c2c[nH]c3cc(OC)c(C)cc23)c2ccc(Cl)cc2OC)cc(OCCO)c1 (single isomer, unassigned)
measured.property: EC50
value.measured: 0.026
--
molecule: COc1cc(NC(C(=O)c2c[nH]c3cc(OC)c(F)cc23)c2ccc(Cl)cc2OC)cc(OCCO)c1 (single isomer, unassigned)
measured.property: EC50
value.measured: 0.07
--
molecule: COc1cc(NC(C(=O)c2c[nH]c3c(C)c(F)ccc23)c2ccc(Cl)cc2OC)cc(OCCO)c1 (single isomer, unassigned)
measured.property: EC50
value.measured: 0.053
--
molecule: COc1cc(NC(C(=O)c2c[nH]c3cc(Cl)ccc23)c2ccc(Cl)cc2OC)cc(OCCO)c1 (single isomer, unassigned)
measured.property: EC50
value.measured: 0.065

* * *

Test: in vitro
Assay type: cell-based
Conditions: African green monkey

compound: COc1cc(NC(C(=O)c2c[nH]c3c(C)c(Cl)ccc23)c2ccc(Cl)cc2OC)cc(OCCO)c1 (single isomer, unassigned)
CC50 at 3 days, µM: 3.8
//
compound: COc1cc(NC(C(=O)c2c[nH]c3c(F)c(F)ccc23)c2ccc(Cl)cc2OC)cc(OCCO)c1 (single isomer, unassigned) [Compound 11B]
CC50 at 3 days, µM: 3.7
//
compound: COc1cc(NC(C(=O)c2c[nH]c3cc(F)c(F)cc23)c2ccc(Cl)cc2OC)cc(OCCO)c1 (single isomer, unassigned)
CC50 at 3 days, µM: 4.7
//
compound: COc1cc(NC(C(=O)c2c[nH]c3cc(OC)c(F)cc23)c2ccc(Cl)cc2OC)cc(OCCO)c1 (single isomer, unassigned)
CC50 at 3 days, µM: 4.6
